systemTested: Endothelial PAS domain-containing protein 1 (Homo sapiens) (UniProt Q99814)
assayProcedure: HIF-2a and HIF-1a reporter inhibition panel, dose response, selectivity assay for HIF-2a inhibitor project, cell-based, luminescence (AID 651581)
experimentalContext: HIF-2a PANC, run 1
pIC50: −log10 of the molar value.
Lab note: anything with pIC50 at or over 5 counts as satisfied; the rest go in not satisfied.

Nc1ccc(-c2nnn(CC(=O)N3CCCCC3)n2)cc1    not satisfied
COc1ccc(OC)c(S(=O)(=O)ON2C(=O)c3ccccc3C2=O)c1    not satisfied
Cc1c(CCC(=O)O)c(=O)oc2cc(OCc3ccccc3Br)ccc12    satisfied

q: Decide: pIC50 of Cc1cc(C)cc(C(=O)NC(=S)Nc2ccc(-c3cc4ccccc4oc3=O)cc2)c1 >= 5?
a: not satisfied

q: Decide: pIC50 of Cc1nc2cc(-c3ccccc3)nn2c(C)c1CCC(=O)NC(C)c1ccc2c(c1)OCCO2 (stereo unspecified) >= 5?
a: satisfied

q: Decide: pIC50 of COc1cccc(/C=N/Nc2ncccc2[N+](=O)[O-])c1OC >= 5?
a: not satisfied

q: Decide: pIC50 of O=C(Nc1ccccc1)c1nnsc1S(=O)(=O)c1ccc(Cl)cc1 >= 5?
a: not satisfied

q: Decide: pIC50 of Nc1ccc2oc(-c3cc(Br)ccc3Cl)nc2c1 >= 5?
a: satisfied

q: Decide: pIC50 of COc1ccc(OCc2cccc(C(=O)NN)c2)cc1 >= 5?
a: not satisfied

q: Decide: pIC50 of CC(=O)Nc1ccc(OS(=O)(=O)c2c(C)cc(C)cc2C)cc1 >= 5?
a: not satisfied
